- METHOD_NOTES: HILIC, Waters Atlantis Premier BEH Z-HILIC, 100 × 2.1 mm, 1.7 µm, 40 °C, 0.16 mL/min, estimated dead time 1.4 min; A: water + 20 mM ammonium carbonate + 5 µM medronic acid; B: 10% water + 90% acetonitrile + 2 mM ammonium carbonate + 0.5 µM medronic acid; gradient (min/%B) 0/97 18/55 18.1/20 21.5/20 22/97 23.5/97 25.5/97
- CONDITION_INFO: stereoisomer not certain
Please provide measured LC retention time for the entries that follow.
One number for each entry, in min.

Recorded results for 5 compounds are shown here.
CC(=O)NC1C(OP(=O)(O)OP(=O)(O)OCC2OC(n3ccc(=O)[nH]c3=O)C(O)C2O)OC(CO)C(O)C1O (stereo not given) ... 10.1
O=P(O)(O)OCC(O)CO (stereo not given) [Glycerol-3-phosphate] ... 10.6
O=C(CO)COP(=O)(O)O [Triose phosphate] ... 10.4
NCCCCC(N)C(=O)O (stereo not given) ... 19.4
CC(C)CC(N)C(=O)O (stereo not given) ... 6.36

Could you report LC retention time for every entry in the following list?
1. NC(CCC(=O)O)C(=O)O (stereo not given)
2. O=C1CC(C(=O)O)NC(=O)N1 (stereo not given) [dihydroorotic acid]
3. O=C(O)CCC(O)C(=O)O (stereo not given) [2-hydroxy glutaric acid]
4. CCC(=O)OC(CC(=O)[O-])C[N+](C)(C)C (stereo not given)
5. NC(N)=NCCCC(N)C(=O)O (stereo not given)
6. Nc1nc2c(ncn2C2OC(COP(=O)(O)OP(=O)(O)OP(=O)(O)O)C(O)C2O)c(=O)[nH]1 (stereo not given)
7. CC(C)(COP(=O)(O)OP(=O)(O)OCC1OC(n2cnc3c(N)ncnc32)C(O)C1OP(=O)(O)O)C(O)C(=O)NCCC(=O)NCCS (stereo not given)

Reply text:
1. 9.93
2. 4.6
3. 9.7
4. 6.89
5. 19.2
6. 15.7
7. 12

Need LC retention time for each of these compounds.
1. Nc1ncnc2c1ncn2C1OC(CO)C(O)C1O (stereo not given)
2. O=C(O)CCCCC1SCC2NC(=O)NC21 (stereo not given)
3. O=C(O)CC(C(=O)O)C(O)C(=O)O (stereo not given)

Reply text:
1: 4.45; 2: 4.62; 3: 13.6

All values here come from the RepoRT retention time repository.
